The measurements presented in this section are drawn from patent US8466113B2.

- assay overview: Kidney concentrations until one week after single oral administration
- Format: in vivo
- test settings: Sprague-Dawley (SD/IGS), rat, single oral 0.3 mg/kg, male Sprague-Dawley rats, mean ± S.D., read-out: Concentration of compounds in kidney After 1 day
quantity: concentration at 1 day (ng/g)
Please state the figure in ng/g; there is no need to write the unit.

q: Return value of concentration at 1 day for input "Cc1cc(O)c([C@@H]2O[C@H](CO)[C@@H](O)[C@H](O)[C@H]2O)cc1Cc1ccc(CCNC(=O)NC(CO)(CO)CO)cc1" , no commentary.
a: 63.5

----------
- assay overview: Kidney concentrations until one week after single oral administration
- Format: in vivo
- test settings: Sprague-Dawley (SD/IGS), rat, single oral 1 mg/kg, male Sprague-Dawley rats, 24 hours, read-out: Concentration of compounds in kidney After 1 day
quantity: concentration at 24 h (ng/g)
Write the answer as a number in ng/g, unit excluded.

q: Identify concentration at 24 h associated with the molecule Cc1cc(O)c([C@@H]2O[C@H](CO)[C@@H](O)[C@H](O)[C@H]2O)cc1Cc1ccc(CCNC(=O)NC2CCN(Cc3ccccc3)CC2)cc1 [compound 33]
a: 29.8

q: Provide only the value of recorded concentration at 24 h for Cc1cc(O)c([C@@H]2O[C@H](CO)[C@@H](O)[C@H](O)[C@H]2O)cc1Cc1ccc(CCNC(=O)NC(C)(C)CO)cc1 [compound 10]
a: 167
